Test system: PAK7
Settings: concentration: 1 μM,replicates: in singlicate; n = 1;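 also: KINOMEscan kinase panel screen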
Observed Property: %Inh (%)
Express it in %; write the number only.

Example entries and their recorded answers appear below.
>  <Molecule>
Cl.Cl.NC[C@H](CC1CCCCC1)NC(=O)c1ccc(-c2ccnc3[nH]ccc23)s1 [GSK1581428]

>  <Endpoint Unit>
%

>  <%Inh>
68

$$$$
>  <Molecule>
CN(c1ccccc1CNc1nc(Nc2ccc3c(c2)CC(=O)N3)ncc1C(F)(F)F)S(C)(=O)=O

>  <Endpoint Unit>
%

>  <%Inh>
11

$$$$
>  <Molecule>
CNC(=O)c1ccccc1Nc1nc(Nc2cccc(CS(C)(=O)=O)c2)ncc1C.O=CO [GSK1520489]

>  <Endpoint Unit>
%

>  <%Inh>
85

$$$$
>  <Molecule>
C[C@@H](Oc1cc(-n2cnc3cc(-c4ccncc4)ccc32)sc1C(N)=O)c1ccccc1Cl [GSK479719]

>  <Endpoint Unit>
%

>  <%Inh>
94.2

$$$$
>  <Molecule>
O=C(Nc1cccc(Oc2ccc3nccn3n2)c1)Nc1cccc(C(F)(F)F)c1

>  <Endpoint Unit>
%

>  <%Inh>
0

$$$$
>  <Molecule>
Cl.Nc1n[nH]c2cc(-c3ccccn3)ccc12 [GSK2189892]

>  <Endpoint Unit>
%

>  <%Inh>
16

$$$$
>  <Molecule>
C[C@@H]1CNc2c(sc3ccc4nc(-c5ccc(O)cc5)ccc4c23)C(=O)N1

>  <Endpoint Unit>
%

>  <%Inh>
0

$$$$
>  <Molecule>
CCOC(=O)N1CCC(n2cnc(-c3ccc(F)cc3)c2-c2ccnc(N)n2)CC1 [SB-219952]

>  <Endpoint Unit>
%

>  <%Inh>
11

$$$$
>  <Molecule>
c1ccc(Oc2ccc(Nc3ccnc4ccc(-c5ccccn5)cc34)cc2)cc1 [GW407034]

>  <Endpoint Unit>
%

>  <%Inh>
7

$$$$
>  <Molecule>
CS(=O)(=O)c1cccc(CNc2nc(Nc3ccc4c(c3)[C@@H]3C[C@@H]4CNC3=O)ncc2C(F)(F)F)c1

>  <Endpoint Unit>
%

>  <%Inh>
20

$$$$

Query block: Consider the molecule CN1CCN(CCNc2nc3cc(Oc4ccc(NC(=O)Nc5cc(C(F)(F)F)ccc5F)cc4)ccc3[nH]2)CC1.Cl.Cl [GW768504] and give its measured %Inh.
Result block: 0

Query block: Also check O=C(NCC1CC1)c1ccc(-c2cc(C(=O)NC3CC3)ccc2F)cc1 [GW810445]
Result block: 4

Query block: Now this one: CS(=O)c1ccc(-c2coc3ccc(-c4n[nH]c(=O)o4)cc23)cc1 (centres unmarked)
Result block: 19

Query block: // same read-out, input: COc1cccc(C2=C(Nc3cccc(Cl)c3)C(=O)NC2=O)c1 [SB-341556]
Result block: 8

Query block: CCCC(=O)Nc1n[nH]c2ncccc12 [SB-601436] ?
Result block: 0

Query block: Thanks! And COc1cc2c(Nc3ccc(NC(=O)c4ccccc4)cc3)ncnc2cc1OCCCN1CCOCC1 [GSK301329] ?
Result block: 0

---

System: MEK6
Construct: gene MAP2K6
Conditions: concentration: 1 μM,replicates: in singlicate; n = 1
Lab note: compare %Inh with 20%, writing 1 if less and -1 if equal or more.

# example entries with known answers
>  <Compound>
CS(=O)(=O)Nc1ccc(-c2ccnc3[nH]ccc23)cc1

>  <Class Name>
1

$$$$
>  <Compound>
C[C@@H](Oc1cc(-n2cnc3ccc(-c4ccncc4)cc32)sc1C(N)=O)c1ccccc1Cl

>  <Class Name>
1

$$$$
>  <Compound>
Cn1ccc2ncnc(Oc3ccc(NC(=O)Nc4cncc(C(F)(F)F)c4)c(Cl)c3)c21

>  <Class Name>
1

$$$$
>  <Compound>
COc1cc2ncn(-c3cc(OCC4CCCCC4)c(C(N)=O)s3)c2cc1OC

>  <Class Name>
1

$$$$
>  <Compound>
CCOC(=O)N1CCC(n2cnc(-c3ccc(F)cc3)c2-c2ccnc(N)n2)CC1

>  <Class Name>
1

$$$$
>  <Compound>
Cn1ccc2ncnc(Oc3ccc(NC(=O)Nc4cccc(C(F)(F)F)c4)c(Cl)c3)c21

>  <Class Name>
-1

$$$$

Query block: Below 20% on %Inh? Entry CCNCC(Cc1ccccc1)NC(=O)c1cc(Br)c(-c2ccnc3[nH]ccc23)s1.Cl.Cl (stereo not drawn)
Result block: -1

Query block: Another compound to look at: "Cl.Cl.NC[C@H](CC1CCCCC1)NC(=O)c1ccc(-c2ccnc3[nH]ccc23)s1"
Result block: -1

Query block: What do you have for "Nc1nccc(-c2ccc3c(N)n[nH]c3c2)n1" ?
Result block: 1

---

Tested on: ADCK4
Conditions: concentration: 1 μM,replicates: in singlicate; n = 1
Recorded %Inh for the following molecules
Please respond with the number in % and leave the unit unwritten.

>  <Molecule>
COc1ccc(Nc2nccc(N3CCC(NC(=O)c4cccc(C#N)c4)C3)n2)cc1 (stereo not drawn)

>  <Assay System>
ADCK4

>  <Endpoint Unit>
%

>  <%Inh>
9

$$$$
>  <Molecule>
Cc1ccc2c(-c3ccnc(Nc4ccc(C(F)(F)F)cc4)n3)cnn2n1

>  <Assay System>
ADCK4

>  <Endpoint Unit>
%

>  <%Inh>
35

$$$$
>  <Molecule>
Cn1ccc2ncnc(Oc3ccc(NC(=O)Nc4cncc(C(F)(F)F)c4)c(Cl)c3)c21

>  <Assay System>
ADCK4

>  <Endpoint Unit>
%

>  <%Inh>
0

$$$$
>  <Molecule>
O=C(Nc1ccc(Oc2ccc3nc(NC(=O)C4CC4)cn3n2)c(F)c1)c1cccn(-c2ccccc2)c1=O

>  <Assay System>
ADCK4

>  <Endpoint Unit>
%

>  <%Inh>
0

$$$$
>  <Molecule>
C[C@@H]1CNc2c(sc3ccc4nc(-c5ccc(O)cc5)ccc4c23)C(=O)N1

>  <Assay System>
ADCK4

>  <Endpoint Unit>
%

>  <%Inh>
10

$$$$
>  <Molecule>
Cn1ccc2ncnc(Oc3ccc(NC(=O)Nc4cccc(C(F)(F)F)c4)c(F)c3)c21

>  <Assay System>
ADCK4

>  <Endpoint Unit>
%

>  <%Inh>
0

$$$$
>  <Molecule>
CN(c1cccc(CNc2nc(Nc3ccc4c(c3)CC(=O)N4)ncc2C(F)(F)F)c1)S(C)(=O)=O

>  <Assay System>
ADCK4

>  <Endpoint Unit>
%

>  <%Inh>
29

$$$$
>  <Molecule>
CS(=O)c1ccc(-c2coc3ccc(-c4n[nH]c(=O)o4)cc23)cc1 (stereo not drawn)

>  <Assay System>
ADCK4

>  <Endpoint Unit>
%

>  <%Inh>
12

$$$$

Query block: Please give the measured %Inh for this molecule: "COc1cc2ncn(-c3cc(OCC4CCCCC4)c(C(N)=O)s3)c2cc1OC"
Result block: 11

---

Test system: AURKB
Conditions: concentration: 1 μM,replicates: in singlicate; n = 1
Everything with %Inh lower than 50% is Not met; everything else, including exactly 50%, is Met.

Previously resolved entries follow.
>  <Compound>
Cc1cccc(-c2nc(Nc3ccncc3)c3sccc3n2)n1 [GW869641]

>  <Class Name>
Not met

$$$$
>  <Compound>
CC(C)c1nc(-c2cccc(NS(=O)(=O)c3ccccc3)c2)c(-c2ccnc(Nc3ccc4c(c3)CN(C)CC4)n2)s1 [GSK1649598]

>  <Class Name>
Met

$$$$
>  <Compound>
CN(c1cccc(CNc2nc(Nc3ccc4c(c3)CC(=O)N4)ncc2C(F)(F)F)c1)S(C)(=O)=O

>  <Class Name>
Met

$$$$
>  <Compound>
CCn1c(-c2nonc2N)nc2cncc(CNC3CCNCC3)c21.Cl [SB-747651]

>  <Class Name>
Not met

$$$$
>  <Compound>
O=C1NCCc2[nH]c(-c3ccncc3)cc21

>  <Class Name>
Not met

$$$$

We next turn to a different compound, shown below.
Query block: Tell me whether %Inh is at least 50% here: "CS(=O)(=O)c1cccc(CNc2nc(Nc3ccc4c(c3)[C@@H]3C[C@@H]4CNC3=O)ncc2C(F)(F)F)c1"
Result block: Met

---

Test system: ACVRL1
Conditions: concentration: 1 μM,replicates: in singlicate; n = 1
Consider the following molecules and their measured %Inh readings.
Number only, in %; omit the unit.

Example results:
>  <Molecule>
Nc1nccc(-c2ccc3c(N)n[nH]c3c2)n1

>  <%Inh, %>
0

$$$$
>  <Molecule>
COc1cccc(CNC(=O)NC2CCN(c3ccnc(Nc4cc(OC)c(OC)c(OC)c4)n3)C2)c1 (centres unmarked)

>  <%Inh, %>
0

$$$$
>  <Molecule>
COC(=O)Nc1nc2cc(Oc3ccc(NC(=O)Nc4cc(C(F)(F)F)ccc4Cl)cc3)ccc2[nH]1.Cl

>  <%Inh, %>
0

$$$$
>  <Molecule>
OCCn1cc(-c2cnc3nnn(Cc4ccc5ncccc5c4)c3n2)cn1

>  <%Inh, %>
0

$$$$
>  <Molecule>
CN1CCN(CCNc2nc3cc(Oc4ccc(NC(=O)Nc5cc(C(F)(F)F)ccc5F)cc4)ccc3[nH]2)CC1.Cl.Cl

>  <%Inh, %>
0

$$$$
>  <Molecule>
CS(=O)(=O)c1cccc(CNc2nc(Nc3ccc4c(c3)[C@@H]3C[C@@H]4CNC3=O)ncc2C(F)(F)F)c1

>  <%Inh, %>
0

$$$$

Query block: Query the reported %Inh for ACVRL1; item: "Cn1ccc2ncnc(Oc3ccc(NC(=O)Nc4cnn(C(C)(C)C)c4)c(Cl)c3)c21"
Result block: 17

Query block: Continue with "Cc1cccc(-c2nc(Nc3ccncc3)c3sccc3n2)n1"
Result block: 14
